Molecular target: NK3 (Homo sapiens)
Sequence (P29371 whole entry): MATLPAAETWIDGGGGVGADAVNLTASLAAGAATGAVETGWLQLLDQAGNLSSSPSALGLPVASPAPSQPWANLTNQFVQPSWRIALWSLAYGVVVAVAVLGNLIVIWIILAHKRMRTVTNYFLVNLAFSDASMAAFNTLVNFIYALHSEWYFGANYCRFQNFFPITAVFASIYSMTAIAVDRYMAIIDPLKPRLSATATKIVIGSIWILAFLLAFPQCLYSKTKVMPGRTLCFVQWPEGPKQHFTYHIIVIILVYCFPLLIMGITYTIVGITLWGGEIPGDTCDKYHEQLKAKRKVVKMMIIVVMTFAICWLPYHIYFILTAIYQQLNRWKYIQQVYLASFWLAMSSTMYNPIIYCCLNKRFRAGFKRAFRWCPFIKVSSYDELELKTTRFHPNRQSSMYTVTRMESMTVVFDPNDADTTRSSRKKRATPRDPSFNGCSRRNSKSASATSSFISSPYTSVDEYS
Assay: Signal transduction (ST), intracellular Ca++ (FLIPR), NK3
Format: cell-based
Conditions: read-out: pIC50 NK3 (converted)
Assay Readout: IC50 (nM)

Illustrative cases are given below, each with its answer.
Compound	Observed Value
O=C(C1CCOC1)N1CCC(N2CCN(C3CCN(C(=O)c4cc(C(F)(F)F)cc(C(F)(F)F)c4)C(Cc4ccccc4)C3)CC2)C1 (single isomer, unassigned) [Compound 216]	1580
O=C(c1ccsc1)N1CC[C@H](N2CCN([C@H]3CCN(C(=O)c4cc(C(F)(F)F)cc(C(F)(F)F)c4)[C@H](Cc4ccc(Cl)c(Cl)c4)C3)CC2)C1 [Compound 325]	631
O=C(C1CC1)N1CC[C@@H](N2CCN([C@H]3CCN(C(=O)c4cc(C(F)(F)F)cc(C(F)(F)F)c4)[C@H](Cc4ccc(Cl)c(Cl)c4)C3)CC2)C1 [Compound 263]	316
O=C(c1cc(C(F)(F)F)cc(C(F)(F)F)c1)N1CC[C@H](N2CCN(C3CCN(C(CO)c4cccs4)C3)CC2)C[C@H]1Cc1ccccc1 (some centres unmarked) [Compound 319]	3160
O=C(C1CCOC1)N1CCC(N2CCN(C3CCN(C(=O)c4cc(C(F)(F)F)cc(C(F)(F)F)c4)C(Cc4ccc(F)c(F)c4)C3)CC2)C1 (single isomer, unassigned) [Compound 269]	6310
O=C(C1CCOC1)N1CCC(N2CCN(C3CCN(C(=O)c4cc(C(F)(F)F)cc(C(F)(F)F)c4)C(Cc4ccc(Cl)c(Cl)c4)C3)CC2)C1 (single isomer, unassigned) [Compound 331]	251
COc1ccc2[nH]c(C(=O)N3CCC(N4CCN([C@H]5CCN(C(=O)c6cc(C(F)(F)F)cc(C(F)(F)F)c6)[C@H](Cc6ccccc6)C5)CC4)C3)cc2c1 (some centres unmarked) [Compound 55]	7940
O=C(C1CCCCC1)N1CCC(N2CCN(C3CCN(C(=O)c4cc(C(F)(F)F)cc(C(F)(F)F)c4)C(Cc4ccc(F)c(F)c4)C3)CC2)C1 (centres unmarked) [Compound 358]	1580

1: CC(=O)OCC(=O)N1CCC(N2CCN(C3CCN(C(=O)c4cc(C(F)(F)F)cc(C(F)(F)F)c4)C(Cc4ccccc4)C3)CC2)C1 (centres unmarked) [Compound 389]
2: COCCC(=O)N1CC[C@H](N2CCN([C@H]3CCN(C(=O)c4cc(C(F)(F)F)cc(C(F)(F)F)c4)[C@H](Cc4ccccc4)C3)CC2)C1 [Compound 413]
3: Cc1onc(-c2c(Cl)cccc2Cl)c1C(=O)N1CCC(N2CCN([C@H]3CCN(C(=O)c4cc(C(F)(F)F)cc(C(F)(F)F)c4)[C@H](Cc4ccccc4)C3)CC2)C1 (some centres unmarked) [Compound 49]
Incoming: Hey, can you sort those compounds up there by IC50, smallest first? Order the labels as requested and list them.
Outgoing: 3, 2, 1

I: O=C(c1cc(C(F)(F)F)cc(C(F)(F)F)c1)N1CCC(N2CCN(C3CCN(Cc4ccccc4)C3)CC2)CC1Cc1ccc(F)c(F)c1 (single isomer, unassigned) [Compound 223]
II: O=C(c1ccoc1)N1CCC(N2CCN(C3CCN(C(=O)c4cc(C(F)(F)F)cc(C(F)(F)F)c4)C(Cc4ccc(Cl)c(Cl)c4)C3)CC2)C1 (centres unmarked) [Compound 173]
Incoming: Lower IC50: I or II ? Selection: enter the item's label.
Outgoing: II
